Origin of measurements: ChEMBL document CHEMBL5370585

Tested on: Enterococcus faecalis
assay: Antibacterial activity against Enterococcus faecalis ATCC 29212 incubated for 16 to 18 hrs by CLSI based broth dilution method
Format: functional
setupConditions: time 16-18 hrs
Mark each entry yes if its MIC sits below 0.5 µg/mL, and no for all others.

Prompt line: # TODO verify MIC < 0.5 µg/mL strictly for this compound: Nc1nc(N)c2c(ccc3c2ccn3Cc2cccc3cccnc23)n1
Response line: yes

Prompt line: # TODO verify MIC < 0.5 µg/mL strictly for this compound: Nc1nc(N)c2c(ccc3c2ccn3Cc2ccc3cc(C(=O)O)ccc3c2)n1
Response line: no

Prompt line: # TODO verify MIC < 0.5 µg/mL strictly for this compound: Nc1nc(N)c2c(ccc3c2ccn3Cc2ccc3ocnc3c2)n1
Response line: no

Prompt line: # TODO verify MIC < 0.5 µg/mL strictly for this compound: Nc1nc(N)c2c(ccc3c2ccn3Cc2ccc3ccccc3n2)n1
Response line: yes

Prompt line: # TODO verify MIC < 0.5 µg/mL strictly for this compound: Nc1nc(N)c2c(ccc3c2ccn3Cc2ccc3occc3c2)n1
Response line: yes

Prompt line: # TODO verify MIC < 0.5 µg/mL strictly for this compound: Nc1nc(N)c2c(ccc3c2ccn3Cc2cccc3ccccc23)n1
Response line: yes

====

assay: Stability in mouse plasma assessed as parent compound remaining at 5 ug/ml measured after 45 mins by LC-MS/MS analysis
Type: ADME, cell-free
setupConditions: at 5 µg/mL, read-out: Stability
measuredEndpoint: remaining at 0.75 h, 5 ug/ml (%)
Field: numeric (%). Do not append units.

Prompt line: # lookup: remaining at 0.75 h, 5 ug/ml of Cc1cc2c3c(N)nc(N)nc3ccc2n1Cc1nc2ccccc2s1
Response line: 97.9

Prompt line: # lookup: remaining at 0.75 h, 5 ug/ml of Nc1nc(N)c2c(ccc3c2ccn3Cc2ccc3scnc3c2)n1
Response line: 95.2

====

Consider the following molecules; for each one, report its remaining at 0.5 h, 1 ug/ml.
assay: Stability in mouse plasma assessed as parent compound remaining at 1 ug/ml measured after 30 mins by LC-MS/MS analysis
Assay type: ADME, cell-free
setupConditions: at 1 µg/mL, read-out: Stability
Field: numeric (%). Do not append units.

Prompt line: # lookup: remaining at 0.5 h, 1 ug/ml of Nc1nc(N)c2c(ccc3c2ccn3Cc2ccc3scnc3c2)n1
Response line: 93.8

Prompt line: # lookup: remaining at 0.5 h, 1 ug/ml of Cc1cc2c3c(N)nc(N)nc3ccc2n1Cc1nc2ccccc2s1
Response line: 99.1

====

assay: AUC (0 to infinity) in ICR mouse at 10 mg/kg, ip measured after 5 to 24 hrs post administration by LC-MS/MS analysis
Format: ADME, organism-based
Set-up: time upper 24 hrs, dose 10 mg/kg, time lower 5 hrs, route ip
setupConditions: ICR, in vivo
measuredEndpoint: AUC(0-inf) (ng·h/mL)
Field: numeric (ng·h/mL). Do not append units.

Prompt line: # lookup: AUC(0-inf) of Cc1cc2c3c(N)nc(N)nc3ccc2n1Cc1nc2ccccc2s1
Response line: 2740

====

assay: Half life in ICR mouse at 10 mg/kg, ip measured after 5 to 24 hrs post administration by LC-MS/MS analysis
Assay type: ADME, organism-based
setupConditions: in vivo, time 5-24 hrs
Consider the following compounds; for each one, report its half-life.
Field: numeric (h). Do not append units.

Prompt line: # lookup: half-life of Nc1nc(N)c2c(ccc3c2ccn3Cc2ccc3scnc3c2)n1
Response line: 2.82

Prompt line: # lookup: half-life of Cc1cc2c3c(N)nc(N)nc3ccc2n1Cc1nc2ccccc2s1
Response line: 9.81
